Cited source for all entries: patent EP1140809B1

target: αvβ3 receptor (Homo sapiens, UniProt P05106+P06756); construct: αvβ3 from human A375 cells were purified according to a procedure described by Wong et al; endogenous in cells; receptor purified from the cells, detergent-solubilised; assay: Binding to the αvβ3 receptor (echistatin displacement, WGA SPA beads); conditions: αvβ3 purified from human A375 cells, labelled echistatin, read-out: avb3 IC50
Sequence (P06756 31-889 limits assumed): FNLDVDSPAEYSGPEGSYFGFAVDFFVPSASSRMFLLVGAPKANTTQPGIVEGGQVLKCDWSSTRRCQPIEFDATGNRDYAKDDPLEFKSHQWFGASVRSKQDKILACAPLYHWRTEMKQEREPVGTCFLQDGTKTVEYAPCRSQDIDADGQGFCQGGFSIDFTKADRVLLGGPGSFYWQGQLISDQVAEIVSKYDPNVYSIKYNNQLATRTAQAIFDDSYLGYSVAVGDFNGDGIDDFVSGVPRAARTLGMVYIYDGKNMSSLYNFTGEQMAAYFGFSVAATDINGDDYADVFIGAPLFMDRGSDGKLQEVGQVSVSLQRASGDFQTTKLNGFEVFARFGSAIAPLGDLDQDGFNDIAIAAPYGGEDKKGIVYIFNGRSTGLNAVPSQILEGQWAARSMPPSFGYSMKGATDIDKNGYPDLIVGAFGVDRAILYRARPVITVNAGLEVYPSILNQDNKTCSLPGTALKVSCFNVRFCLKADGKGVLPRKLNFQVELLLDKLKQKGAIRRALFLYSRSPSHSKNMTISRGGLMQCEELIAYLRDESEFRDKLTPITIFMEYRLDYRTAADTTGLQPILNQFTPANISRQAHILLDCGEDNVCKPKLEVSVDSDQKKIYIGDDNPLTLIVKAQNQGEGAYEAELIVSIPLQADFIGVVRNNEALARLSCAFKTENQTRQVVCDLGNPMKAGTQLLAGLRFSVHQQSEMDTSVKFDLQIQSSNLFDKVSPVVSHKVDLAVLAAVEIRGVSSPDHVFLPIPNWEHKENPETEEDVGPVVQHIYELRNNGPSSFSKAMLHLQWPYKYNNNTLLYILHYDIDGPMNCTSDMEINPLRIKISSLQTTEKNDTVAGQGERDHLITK
Sequence (P06756 891-1048 partner limits assumed): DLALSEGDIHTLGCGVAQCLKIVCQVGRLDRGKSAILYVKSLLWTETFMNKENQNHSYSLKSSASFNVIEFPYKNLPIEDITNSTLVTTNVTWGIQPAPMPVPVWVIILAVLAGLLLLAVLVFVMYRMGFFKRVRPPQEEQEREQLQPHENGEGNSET
Sequence (P05106 27-788): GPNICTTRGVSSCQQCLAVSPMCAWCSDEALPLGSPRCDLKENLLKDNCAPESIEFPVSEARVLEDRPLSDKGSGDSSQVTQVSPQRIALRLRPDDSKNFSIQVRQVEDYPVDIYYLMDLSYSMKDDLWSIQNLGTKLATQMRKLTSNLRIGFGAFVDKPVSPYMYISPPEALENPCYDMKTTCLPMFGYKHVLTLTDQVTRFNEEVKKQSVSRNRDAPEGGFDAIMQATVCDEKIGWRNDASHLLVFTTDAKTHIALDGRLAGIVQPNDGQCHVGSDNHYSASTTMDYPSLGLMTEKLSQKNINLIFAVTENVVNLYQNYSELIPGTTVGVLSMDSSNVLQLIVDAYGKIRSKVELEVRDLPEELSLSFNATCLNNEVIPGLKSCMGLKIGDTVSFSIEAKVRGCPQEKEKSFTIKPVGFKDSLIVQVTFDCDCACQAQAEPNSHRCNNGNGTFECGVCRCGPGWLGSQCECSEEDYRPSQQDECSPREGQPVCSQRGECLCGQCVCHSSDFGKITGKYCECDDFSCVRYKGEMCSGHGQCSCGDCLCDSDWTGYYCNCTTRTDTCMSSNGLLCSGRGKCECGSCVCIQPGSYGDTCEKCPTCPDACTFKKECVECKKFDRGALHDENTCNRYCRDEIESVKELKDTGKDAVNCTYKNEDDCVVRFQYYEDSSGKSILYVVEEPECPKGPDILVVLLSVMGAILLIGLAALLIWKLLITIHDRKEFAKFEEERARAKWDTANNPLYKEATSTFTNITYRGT
pIC50: −log10 of the molar value.
PARAMETER_MEASURED: pIC50

Solved entries (count: 4):
>  <MOLECULE>
Cc1cc(C)c(S(=O)(=O)N[C@@H](Cc2ccc(-c3cccc(NC(=O)c4ncc[nH]4)c3)cc2)C(=O)O)c(C)c1

>  <TARGET_ENTITY>
αvβ3 receptor (Homo sapiens, UniProt P05106+P06756)

>  <REPORTED_VALUE>
9.00

$$$$
>  <MOLECULE>
Cc1cc(C)c(S(=O)(=O)N[C@@H](Cc2ccc(-c3cccc(NC(=O)NC4CC4)c3)cc2)C(=O)O)c(C)c1

>  <TARGET_ENTITY>
αvβ3 receptor (Homo sapiens, UniProt P05106+P06756)

>  <REPORTED_VALUE>
8.92

$$$$
>  <MOLECULE>
Cc1cc(C)c(S(=O)(=O)NC(Cc2ccc(-c3cccc(NC(=O)NCc4cccnc4)c3)cc2)C(=O)O)c(C)c1 (racemic)

>  <TARGET_ENTITY>
αvβ3 receptor (Homo sapiens, UniProt P05106+P06756)

>  <REPORTED_VALUE>
8.30

$$$$
>  <MOLECULE>
O=C(O)CNS(=O)(=O)c1cccc(-c2cccc(NC(=O)NCc3ccccn3)c2)c1

>  <TARGET_ENTITY>
αvβ3 receptor (Homo sapiens, UniProt P05106+P06756)

>  <REPORTED_VALUE>
7.48

$$$$

P: Cc1cc(C)c(S(=O)(=O)N[C@@H](Cc2ccc(-c3cccc(CNc4ccccn4)c3)cc2)C(=O)O)c(C)c1
Q: Cc1cc(C)c(S(=O)(=O)NC(Cc2ccc(-c3cccc(NC4=NCCN4)c3)cc2)C(=O)O)c(C)c1 (racemic)
# return whichever of P and Q has the smaller pIC50 Write the label of whichever entry you select.
P
